assay: in vivo; conditions: rat, sc
What LD50 was measured for each of the following?
Write the value in mg/kg as a bare number.

Asked: Tell me the measured LD50 of CCCNC(CCC)Cc1ccccc1 (stereo not shown) [Example 4, N-propyl-1-phenyl-2-pentylamine] , please.
Given back: 50

Asked: Would you kindly share the measured LD50 for CCCC(Cc1ccccc1)NC(C)C.Cl (stereo not shown) [Example 1] ?
Given back: 135

Asked: Please give the measured LD50 for this molecule: CCCC(Cc1ccccc1)NC (stereo not shown) [Example 10]
Given back: 175

Asked: Fill in: LD50 of CCCCC(Cc1ccccc1)NCCC (stereo not shown) [Example 11] is ___
Given back: 110

Asked: Endpoint output: LD50 of CCCNC(CC)Cc1ccccc1 (stereo not shown) [Example 6, N-propyl-1-phenyl-2-butyl-amine] . Value?
Given back: 140

Asked: Please give the measured LD50 for this molecule: CCC(Cc1ccccc1)NC1CCCCC1 (stereo not shown) [Example 9]
Given back: 160

Asked: Value lookup for LD50; key = CCNC(CC)Cc1ccccc1 (stereo not shown) [Example 8]
Given back: 195

Asked: Give its LD50 value. Item: CCCNC(Cc1ccccc1)c1ccccc1.Cl (stereo not shown) [Example 3]
Given back: 75
